test system: LOX IMVI melanoma; test: NCI-60 one-dose screen, 48 h; settings: 10 µM
This is part of a sample that, as a whole, favours compounds with a hit. Of some 83,000 tested, about 20% had one in any assay. Calls of active or inactive are those of the source. The calls were made as follows: active = growth percent below 10; inactive = the rest.
Outcomes: true for active, false for inactive

{"Smi": "O=C(N/N=C/c1cc([N+](=O)[O-])ccc1O)c1cccc2ccccc12", "Label Class": "true"}
{"Smi": "C=CCn1c(SCC(=O)Nc2ccc(C(=O)/C=C/c3cc(OC)c(OC)c(OC)c3)cc2)nnc1-c1cc(-c2ccc(Cl)cc2)nc2ccccc12", "Label Class": "false"}
{"Smi": "CN(C)CCOc1cccc(NC2=C(Cl)C(=O)C(Nc3cccc(OCCN(C)C)c3)=C(Cl)C2=O)c1", "Label Class": "true"}
{"Smi": "N#Cc1c(-c2ccc(Cl)cc2)n(O)c2ccccc12", "Label Class": "false"}
